Reported log10(IC50) values, Acetylcholinesterase (Electrophorus electricus, UniProt O42275).
Give log10 of IC50, with IC50 taken in µM.

O=C1NCCC(O)c2ncccc21 (stereo not given) :: 2.74

Let me check: O=C1NCC(O)c2ccccc21 (stereo not given) , system Acetylcholinesterase (Electrophorus electricus, UniProt O42275), measured log10(IC50) is 2.13

Let me check: O=C1NCC(O)c2ccsc21 (stereo not given) , system Acetylcholinesterase (Electrophorus electricus, UniProt O42275), measured log10(IC50) is 3.14

Let me check: COC1CNC(=O)c2ccccc21 (stereo not given) , system Acetylcholinesterase (Electrophorus electricus, UniProt O42275), measured log10(IC50) is 1.95

Let me check: COc1ccc2c(c1)C(=O)NCC2O (stereo not given) , system Acetylcholinesterase (Electrophorus electricus, UniProt O42275), measured log10(IC50) is 2.49

Let me check: Cc1ccc2c(c1)C(=O)NCCC2O (stereo not given) , system Acetylcholinesterase (Electrophorus electricus, UniProt O42275), measured log10(IC50) is 2.73
